- TEST_TARGET: Cat L (UniProt P07711)
- ASSAY_INFO: Cathepsin enzyme inhibition assay (fluorogenic peptide substrate Z-Val-Val-Arg-AMC), Cathepsin L
- Assay type: biochemical, human and mouse
- MEASUREMENT_SETUP: enzyme 1 nM, substrate 20 μM, pH 6.5; read-out: CatL IC50
Threshold check on IC50: strictly below 30 µM is 1; on or above 30 µM is 0.

Say whether its IC50 is strictly beneath 30 µM. Entry: N#CC1(NC(=O)[C@@H]2C[C@@H](S(=O)(=O)c3ccccc3Cl)CN2C(=O)CC(F)(F)F)CC1
1

Say whether its IC50 is strictly beneath 30 µM. Entry: N#CC1(NC(=O)[C@@H]2C[C@@H](S(=O)(=O)c3ccccc3C(F)(F)F)CN2C(=O)C2(C(F)(F)F)CC2)CC1
0

Say whether its IC50 is strictly beneath 30 µM. Entry: Cc1cc(N2C[C@H](S(=O)(=O)c3ccccc3C(F)(F)F)C[C@H]2C(=O)NC2(C#N)CC2)n(-c2ccccc2)n1
0

Say whether its IC50 is strictly beneath 30 µM. Entry: N#CC1(NC(=O)[C@@H]2C[C@@H](S(=O)(=O)c3ccc(OCC(F)(F)F)cc3Cl)CN2C(=O)C[C@H]2CC[C@H](N)CC2)CC1
1

Say whether its IC50 is strictly beneath 30 µM. Entry: COCC(=O)N1C[C@H](S(=O)(=O)c2ccccc2Cl)C[C@H]1C(=O)NCC#N
1
